System: Peronospora tabacina
measurement-protocol: Control of Peronospora Tabacina on tobacco in preventive leaf application (greenhouse test)
Format: in vivo
details: in vivo
Exercise: state measured Activity (y) for each of the compounds provided.
One number for each entry.

O=S(=O)([O-])[O-].[Cu+2] [CuSO4, copper sulphate]    45
O=S(=O)([O-])[O-].[Zn+2] [ZnSO4, zinc sulphate]    20
[O]=[Zn] [ZnO, zinc oxide]    15

Look at this compound and give its reported Activity (y). O=S(=O)([O-])[O-].[Fe+2] [FeSO4, iron sulphate]
15
